This section presents binders with their documented pH inflection point values.
measured_target: T1, recombinant human Nectin4 antigen (human, UniProt Q96NY8 32-349)
T1 construct: construct not described
T1 sequence (looked up): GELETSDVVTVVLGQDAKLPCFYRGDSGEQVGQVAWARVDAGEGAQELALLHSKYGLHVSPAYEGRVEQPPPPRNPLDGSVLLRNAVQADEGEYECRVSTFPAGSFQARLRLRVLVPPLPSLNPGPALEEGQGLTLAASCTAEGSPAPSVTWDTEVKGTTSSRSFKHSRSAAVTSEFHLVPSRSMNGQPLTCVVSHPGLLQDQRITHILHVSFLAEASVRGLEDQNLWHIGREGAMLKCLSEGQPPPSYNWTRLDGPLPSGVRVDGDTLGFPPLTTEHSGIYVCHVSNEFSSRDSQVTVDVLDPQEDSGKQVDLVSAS
test_method_notes: pH range ELISA, 30 ng/mL, pH of 50% binding activity
Answer format reminder: number followed by unit.

Solved cases (5 shown):
binder	measure	recorded_value
BAP-143-00-03 (antibody, V domains shown, Used as a conjugate with a linker payload (CAB ADC)) VH: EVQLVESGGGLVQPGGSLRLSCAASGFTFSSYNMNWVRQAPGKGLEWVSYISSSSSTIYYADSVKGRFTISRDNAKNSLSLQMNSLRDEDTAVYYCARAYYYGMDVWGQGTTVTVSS VL: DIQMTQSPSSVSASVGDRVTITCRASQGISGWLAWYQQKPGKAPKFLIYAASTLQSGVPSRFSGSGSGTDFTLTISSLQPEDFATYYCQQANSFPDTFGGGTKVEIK	pH inflection point	6.71 pH
BAP-143-00-05 (antibody, V domains shown, Used as a conjugate with a linker payload (CAB ADC)) VH: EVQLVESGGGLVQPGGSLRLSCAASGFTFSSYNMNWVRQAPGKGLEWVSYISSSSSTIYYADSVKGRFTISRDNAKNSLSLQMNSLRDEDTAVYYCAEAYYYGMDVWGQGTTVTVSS VL: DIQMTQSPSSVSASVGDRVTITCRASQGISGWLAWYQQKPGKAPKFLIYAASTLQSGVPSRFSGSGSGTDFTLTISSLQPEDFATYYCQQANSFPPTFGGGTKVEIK	pH inflection point	6.99 pH
BAP-143-00-04 (antibody, V domains shown, Used as a conjugate with a linker payload (CAB ADC)) VH: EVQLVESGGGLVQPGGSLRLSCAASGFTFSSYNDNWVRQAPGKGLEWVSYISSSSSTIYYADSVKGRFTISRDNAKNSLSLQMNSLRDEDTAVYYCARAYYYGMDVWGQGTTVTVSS VL: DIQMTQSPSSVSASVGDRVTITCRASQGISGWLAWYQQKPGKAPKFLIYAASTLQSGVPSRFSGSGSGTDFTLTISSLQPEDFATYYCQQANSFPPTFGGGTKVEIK	pH inflection point	6.81 pH
BAP-143-00-06 (antibody, V domains shown, Used as a conjugate with a linker payload (CAB ADC)) VH: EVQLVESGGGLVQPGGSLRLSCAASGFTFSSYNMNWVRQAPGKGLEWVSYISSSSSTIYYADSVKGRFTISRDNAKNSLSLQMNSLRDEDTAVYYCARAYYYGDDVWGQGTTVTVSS VL: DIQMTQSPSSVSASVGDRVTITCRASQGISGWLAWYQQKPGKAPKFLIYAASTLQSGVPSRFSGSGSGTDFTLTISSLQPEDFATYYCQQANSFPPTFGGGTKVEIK	pH inflection point	6.77 pH
BAP-143-00-02 (antibody, V domains shown, Used as a conjugate with a linker payload (CAB ADC)) VH: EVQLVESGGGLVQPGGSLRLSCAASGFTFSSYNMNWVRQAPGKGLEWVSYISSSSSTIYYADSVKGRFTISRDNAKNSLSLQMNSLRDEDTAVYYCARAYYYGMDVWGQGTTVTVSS VL: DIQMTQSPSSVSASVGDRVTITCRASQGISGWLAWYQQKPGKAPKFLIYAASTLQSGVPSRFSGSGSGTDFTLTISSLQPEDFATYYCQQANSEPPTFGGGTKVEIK	pH inflection point	6.7 pH

Proceed to the following item.
get_value(item= BAP-143-00-01 (antibody, V domains shown, Used as a conjugate with a linker payload (CAB ADC)) VH: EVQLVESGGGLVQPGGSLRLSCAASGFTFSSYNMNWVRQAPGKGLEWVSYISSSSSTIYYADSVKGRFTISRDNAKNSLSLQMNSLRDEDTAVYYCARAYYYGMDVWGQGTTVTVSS VL: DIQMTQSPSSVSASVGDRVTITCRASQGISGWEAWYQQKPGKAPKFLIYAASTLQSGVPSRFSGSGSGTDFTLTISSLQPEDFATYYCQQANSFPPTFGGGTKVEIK , readout=pH inflection point) returns 6.59 pH
